Tested on: CAF#7 (primary prostate cancer-associated fibroblasts of myCAF-like type)
procedure-summary: drug sensitivity score (DSS2, normalised partial AUC of dose-response, 72 h CellTiter-Glo viability) (DSS (dimensionless)); higher = more sensitive (stronger growth inhibition / cytotoxicity); extreme values may be limits of the assay
Collected drug sensitivity score values appear next to each entry.
No unit in the answer, please; the number alone is enough.

[[record]]
compound = "Nc1nccc(-c2c(-c3ccc(F)cc3)ncn2C2CCCCC2)n1 (tested concentration range 1-10000 nM)"
assay_readout = "drug sensitivity score"
observed = 0

[[record]]
compound = "Cc1ccc(C(=O)N(CCCN)[C@@H](c2oc3cc(Cl)ccc3c(=O)c2Cc2ccccc2)C(C)C)cc1 (tested concentration range 0-100 nM)"
assay_readout = "drug sensitivity score"
observed = 1.3

[[record]]
compound = "COc1cc(NS(C)(=O)=O)ccc1Nc1c2ccccc2nc2ccccc12 [Amsacrine] (tested concentration range 1-10000 nM)"
assay_readout = "drug sensitivity score"
observed = 7.1

[[record]]
compound = "CO[C@H]1CC[C@H](N2C(=O)CNc3ncc(-c4ccc(C(C)(C)O)nc4)nc32)CC1 [ATG-008] (tested concentration range 1-10000 nM)"
assay_readout = "drug sensitivity score"
observed = 3.1


Request: // drug sensitivity score lookup, key: CC(O)(CS(=O)(=O)c1ccc(F)cc1)C(=O)Nc1ccc(C#N)c(C(F)(F)F)c1 (stereo unspecified) [Bicalutamide] (tested concentration range 1-10000 nM)
Response: 0.5

Request: Looking for the measured drug sensitivity score of N#Cc1ccnc(N2C(=O)CC[C@H]2C(=O)N(c2cncc(F)c2)[C@H](C(=O)NC2CC(F)(F)C2)c2ccccc2Cl)c1 [Ivosidenib] (tested concentration range 1-10000 nM) , can you help?
Response: 0
